test: Plasma concentration of PRN1008, Part A; type: in vivo; details: human, oral, read-out: plasma levels at 12 hours post-dose (trough point)
parameter: concentration at 12 h (ng/mL)

>>> result("CC(C)(C=C(C#N)C(=O)N1CCC[C@@H](n2nc(-c3ccc(Oc4ccccc4)cc3F)c3c(N)ncnc32)C1)N1CCN(C2COC2)CC1")
9.5
